biological target: T1, Human FRα ECD-Avi-His (human, biotin on the Avi-tag (BirA) in the HTRF assays); assay: MOv19 HTRF epitope competition assay; accelerated stability study
T1 construct: also called biotinylated human FRα; folate receptor alpha
T1 sequence (chain, as listed by the source limits assumed): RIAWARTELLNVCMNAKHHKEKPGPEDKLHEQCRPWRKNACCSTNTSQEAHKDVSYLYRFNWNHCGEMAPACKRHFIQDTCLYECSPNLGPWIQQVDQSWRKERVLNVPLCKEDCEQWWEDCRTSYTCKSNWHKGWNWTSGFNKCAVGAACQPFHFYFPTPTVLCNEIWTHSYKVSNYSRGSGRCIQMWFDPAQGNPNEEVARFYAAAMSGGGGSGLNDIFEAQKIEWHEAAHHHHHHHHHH
REPORTED_ENDPOINT: fold difference (IC50 45°C against 4°C) (fold)
Hi! Could you send only the number? It should be in fold, unit omitted.

Worked cases, fold difference (IC50 45°C against 4°C) given:
AB1370095 hIgG1 (antibody, V domains shown) VH: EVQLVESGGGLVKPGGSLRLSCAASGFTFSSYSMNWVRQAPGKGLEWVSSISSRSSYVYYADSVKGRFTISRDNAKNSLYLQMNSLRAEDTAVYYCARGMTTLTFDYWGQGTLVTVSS VL: DIQMTQSPSSLSASVGDRVTITCRASQGISSFLAWFQQKPGKAPKSLIYAASSLQSGVPSKFSGSGSGTDFTLTISSLQPEDFATYYCQQYNSYPLTFGGGTKVEIKR | 0.85
AB1370026 hIgG1 (antibody, V domains shown) VH: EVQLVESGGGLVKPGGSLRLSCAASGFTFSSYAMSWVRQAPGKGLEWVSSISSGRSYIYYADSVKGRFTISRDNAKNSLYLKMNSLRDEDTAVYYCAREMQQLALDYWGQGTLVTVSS VL: DIQMTQSPSSLSASVGDRVTITCRASQGISNFLAWFQQAPGKAPKSLIYAASSLQSGVPSKFSGSGSGTDFTLTISSLQPEDFATYYCQQYNSYPFTFGQGTKLEIKR | 1
AB1370035 hIgG1 (antibody, V domains shown) VH: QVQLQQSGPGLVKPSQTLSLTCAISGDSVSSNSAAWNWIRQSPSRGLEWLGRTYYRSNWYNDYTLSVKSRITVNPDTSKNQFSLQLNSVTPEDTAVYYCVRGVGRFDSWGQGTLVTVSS VL: DIQMTQSPSTLSASVGDRVIITCRASQSISSWLAWYQQKPGKAPKLLIYKASSLESGVPSRFSGSGSGTEFTLTITSLQPDDFASYYCQEYKTYSIFTFGPGTKVDIKR | 1.23

Turning now to a further binder:
IN: Please indicate fold difference (IC50 45°C against 4°C) recorded for AB1370083 hIgG1 (antibody, V domains shown) VH: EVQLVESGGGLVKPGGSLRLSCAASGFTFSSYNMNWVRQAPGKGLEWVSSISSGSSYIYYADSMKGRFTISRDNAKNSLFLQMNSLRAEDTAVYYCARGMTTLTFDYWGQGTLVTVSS VL: DIQMTQSPSSLSASVGDRVTITCRASQGISTFLAWFQQKPGKAPKSLIYAASSLQSGVPSKFSGSGSETDFTLTISSLQPEDFATYYCQQYISYPLTFGGGTKVEIKR
OUT: 1.3
